- ASSAY SYSTEM: Serine/threonine-protein kinase 16 (Homo sapiens) (UniProt O75716)
- Sequence (O75716 whole entry): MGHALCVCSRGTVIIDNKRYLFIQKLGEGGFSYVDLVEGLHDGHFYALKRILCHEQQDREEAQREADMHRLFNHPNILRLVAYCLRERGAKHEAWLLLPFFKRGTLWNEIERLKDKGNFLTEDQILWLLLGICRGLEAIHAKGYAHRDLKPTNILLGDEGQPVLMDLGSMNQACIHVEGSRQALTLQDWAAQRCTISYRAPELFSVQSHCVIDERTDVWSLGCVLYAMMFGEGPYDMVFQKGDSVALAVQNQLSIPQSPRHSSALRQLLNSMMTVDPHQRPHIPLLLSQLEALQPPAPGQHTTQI
Label fulfilled when ΔTm >= 1 °C; otherwise not fulfilled.

[
  {
    "MOLECULE": "COc1ccc(COc2ccc(Cc3cnc(N)nc3N)cc2OC)cc1",
    "ASSAY SYSTEM": "Serine/threonine-protein kinase 16 (Homo sapiens) (UniProt O75716)",
    "CAT": "not fulfilled"
  },
  {
    "MOLECULE": "O=C1Nc2ccccc2/C1=C1/Nc2ccccc2/C1=N\\O",
    "ASSAY SYSTEM": "Serine/threonine-protein kinase 16 (Homo sapiens) (UniProt O75716)",
    "CAT": "fulfilled"
  },
  {
    "MOLECULE": "O=C1Nc2cc(Br)ccc2/C1=C1/Nc2ccccc2/C1=N\\O",
    "ASSAY SYSTEM": "Serine/threonine-protein kinase 16 (Homo sapiens) (UniProt O75716)",
    "CAT": "fulfilled"
  },
  {
    "MOLECULE": "CCN(CC)CCNC(=O)c1c(C)[nH]c(/C=C2\\C(=O)Nc3ccc(Cl)cc32)c1C",
    "ASSAY SYSTEM": "Serine/threonine-protein kinase 16 (Homo sapiens) (UniProt O75716)",
    "CAT": "fulfilled"
  },
  {
    "MOLECULE": "COc1cc2ncnc(Nc3cccc(Br)c3)c2cc1OC",
    "ASSAY SYSTEM": "Serine/threonine-protein kinase 16 (Homo sapiens) (UniProt O75716)",
    "CAT": "not fulfilled"
  },
  {
    "MOLECULE": "O=C(O)/C=C/c1cc(CO)ccc1CO",
    "ASSAY SYSTEM": "Serine/threonine-protein kinase 16 (Homo sapiens) (UniProt O75716)",
    "CAT": "not fulfilled"
  },
  {
    "MOLECULE": "Ic1cccc(CSc2nnc(-c3ccncc3)o2)c1",
    "ASSAY SYSTEM": "Serine/threonine-protein kinase 16 (Homo sapiens) (UniProt O75716)",
    "CAT": "not fulfilled"
  },
  {
    "MOLECULE": "C[C@@H]1C[C@H]2O[C@@H]2/C=C\\C=C\\C(=O)Cc2c(Cl)c(O)cc(O)c2C(=O)O1",
    "ASSAY SYSTEM": "Serine/threonine-protein kinase 16 (Homo sapiens) (UniProt O75716)",
    "CAT": "not fulfilled"
  },
  {
    "MOLECULE": "CCOC(=O)c1c(C)[nH]c(/C=C2\\C(=O)Nc3ccccc32)c1C",
    "ASSAY SYSTEM": "Serine/threonine-protein kinase 16 (Homo sapiens) (UniProt O75716)",
    "CAT": "not fulfilled"
  },
  {
    "MOLECULE": "CC(C)(C)n1nc(-c2cccc3ccccc23)c2c(N)ncnc21",
    "ASSAY SYSTEM": "Serine/threonine-protein kinase 16 (Homo sapiens) (UniProt O75716)",
    "CAT": "not fulfilled"
  }
]

Query block: # check: ΔTm of CC(=O)O/N=C1/C(=C2/C(=O)Nc3cc(Br)ccc32)Nc2ccccc21 is greater than or equal to 1 °C
Result block: fulfilled

Query block: Entry COc1cc(C[C@H]2C(=O)OC[C@@H]2Cc2ccc(OC)c(OC)c2)ccc1O : is its ΔTm no less than 1 °C?
Result block: not fulfilled

Query block: Decide: ΔTm of CCN(CC)CCNC(=O)c1c(C)[nH]c(/C=C2\C(=O)Nc3ccc(F)cc32)c1C >= 1 °C?
Result block: fulfilled
